Tested on: HCC-2998 colon
METHOD_DESCRIPTION: NCI tumour cell line growth inhibition, 48 h
Would you please tag the item MET when its TGI is 20 µM or above, and NOT MET when it is below?

* COc1cc(C(C)O)c(S(=O)(=O)CC(C)O)nn1 (configuration not stated) | MET
* O=C(/C=C/c1ccccc1)C(Br)C(Br)c1ccccc1 (configuration not stated) | NOT MET
* Cc1c2ccncc2cc2c1[nH]c1ccccc12 | NOT MET
* CC1=C[C@H]2c3c([nH]c4ccccc34)C(c3c[nH]c4ccccc34)[C@H]2CC1 (some centres not stated) | NOT MET
* CC(=O)OC12C3C4C1C1C2C3C41OC(C)=O (configuration not stated) | MET
* COc1ccc(OC)c(NC(=O)CCC/C(CC(=O)c2ccc(O)c(OC)c2)=N\Nc2nnc(C)n2N)c1 | MET
* CCC(O)c1ccc(Br)cc1NC(=O)c1cccc(Cl)c1 (configuration not stated) | MET
* S=c1snc2n1CCN2 | MET
* Cc1nc(C)c(N2CCN(S(=O)(=O)N(Cc3ccccc3)Cc3ccccc3)CC2)c(=O)[nH]1 | MET
* Cc1ccccc1OC(C)C(=O)NN1C(=O)CSC1c1ccc(Cl)cc1 (configuration not stated) | MET
* COC(=O)C1Cc2cc3c(cc2C1=O)CCCC3 (configuration not stated) | MET
* C/C=C(/I)CBr | MET
